Recorded values, source BigSolDB 2.1.

TEST_CONDITIONS: in n-butyl acetate, 313.15 K
ASSAY_ENDPOINT: solubility (mole fraction)
Just the number, please, no unit attached.

Ask: For the molecule CCCCN(CCCC)c1ccc(C(=O)c2ccccc2C(=O)O)c(O)c1 , what solubility (mole fraction) is on record?
Reply: 0.00952

====

TEST_CONDITIONS: in ethanol, 283.15 K
ASSAY_ENDPOINT: solubility (mole fraction)
Just the number, please, no unit attached.

Ask: For the compound CCCCN(CCCC)c1ccc(C(=O)c2ccccc2C(=O)O)c(O)c1 , what solubility (mole fraction) is on record?
Reply: 0.00193

====

TEST_CONDITIONS: in isopropyl acetate, 293.15 K
ASSAY_ENDPOINT: solubility (mole fraction)
Just the number, please, no unit attached.

Ask: For the compound CCCCN(CCCC)c1ccc(C(=O)c2ccccc2C(=O)O)c(O)c1 , what solubility (mole fraction) is on record?
Reply: 0.00544

====

TEST_CONDITIONS: in ethyl acetate, 323.15 K
ASSAY_ENDPOINT: solubility (mole fraction)

Ask: For the compound CCCCN(CCCC)c1ccc(C(=O)c2ccccc2C(=O)O)c(O)c1 , what solubility (mole fraction) is on record?
Reply: 0.0126

====

TEST_CONDITIONS: in n-propyl acetate, 308.15 K
ASSAY_ENDPOINT: solubility (mole fraction)
Just the number, please, no unit attached.

Ask: For the compound CCCCN(CCCC)c1ccc(C(=O)c2ccccc2C(=O)O)c(O)c1 , what solubility (mole fraction) is on record?
Reply: 0.00846

====

TEST_CONDITIONS: in methanol, 308.15 K
ASSAY_ENDPOINT: solubility (mole fraction)
Just the number, please, no unit attached.

Ask: For the compound CCCCN(CCCC)c1ccc(C(=O)c2ccccc2C(=O)O)c(O)c1 , what solubility (mole fraction) is on record?
Reply: 0.0047

====

TEST_CONDITIONS: in isopropyl acetate, 288.15 K
ASSAY_ENDPOINT: solubility (mole fraction)
Just the number, please, no unit attached.

Ask: For the molecule CCCCN(CCCC)c1ccc(C(=O)c2ccccc2C(=O)O)c(O)c1 , what solubility (mole fraction) is on record?
Reply: 0.00485

====

TEST_CONDITIONS: in ethyl acetate, 303.15 K
ASSAY_ENDPOINT: solubility (mole fraction)
Just the number, please, no unit attached.

Ask: For the compound CCCCN(CCCC)c1ccc(C(=O)c2ccccc2C(=O)O)c(O)c1 , what solubility (mole fraction) is on record?
Reply: 0.00782

====

TEST_CONDITIONS: in n-propanol, 283.15 K
ASSAY_ENDPOINT: solubility (mole fraction)
Just the number, please, no unit attached.

Ask: For the molecule CCCCN(CCCC)c1ccc(C(=O)c2ccccc2C(=O)O)c(O)c1 , what solubility (mole fraction) is on record?
Reply: 0.0165

====

TEST_CONDITIONS: in ethanol, 308.15 K
ASSAY_ENDPOINT: solubility (mole fraction)
Just the number, please, no unit attached.

Ask: For the compound CCCCN(CCCC)c1ccc(C(=O)c2ccccc2C(=O)O)c(O)c1 , what solubility (mole fraction) is on record?
Reply: 0.00641

====

TEST_CONDITIONS: in n-butyl acetate, 303.15 K
ASSAY_ENDPOINT: solubility (mole fraction)
Just the number, please, no unit attached.

Ask: For the molecule CCCCN(CCCC)c1ccc(C(=O)c2ccccc2C(=O)O)c(O)c1 , what solubility (mole fraction) is on record?
Reply: 0.00727

====

TEST_CONDITIONS: in n-propyl acetate, 288.15 K
ASSAY_ENDPOINT: solubility (mole fraction)

Ask: For the compound CCCCN(CCCC)c1ccc(C(=O)c2ccccc2C(=O)O)c(O)c1 , what solubility (mole fraction) is on record?
Reply: 0.00454

====

TEST_CONDITIONS: in n-propanol, 308.15 K
ASSAY_ENDPOINT: solubility (mole fraction)

Ask: For the compound CCCCN(CCCC)c1ccc(C(=O)c2ccccc2C(=O)O)c(O)c1 , what solubility (mole fraction) is on record?
Reply: 0.0496

====

TEST_CONDITIONS: in n-propanol, 323.15 K
ASSAY_ENDPOINT: solubility (mole fraction)

Ask: For the compound CCCCN(CCCC)c1ccc(C(=O)c2ccccc2C(=O)O)c(O)c1 , what solubility (mole fraction) is on record?
Reply: 0.0958

====

TEST_CONDITIONS: in n-propyl acetate, 318.15 K
ASSAY_ENDPOINT: solubility (mole fraction)

Ask: For the compound CCCCN(CCCC)c1ccc(C(=O)c2ccccc2C(=O)O)c(O)c1 , what solubility (mole fraction) is on record?
Reply: 0.0115

====

TEST_CONDITIONS: in acetonitrile, 283.15 K
ASSAY_ENDPOINT: solubility (mole fraction)
Just the number, please, no unit attached.

Ask: For the compound CCCCN(CCCC)c1ccc(C(=O)c2ccccc2C(=O)O)c(O)c1 , what solubility (mole fraction) is on record?
Reply: 0.000701

====

TEST_CONDITIONS: in n-heptane, 293.15 K
ASSAY_ENDPOINT: solubility (mole fraction)
Just the number, please, no unit attached.

Ask: For the compound CCCCN(CCCC)c1ccc(C(=O)c2ccccc2C(=O)O)c(O)c1 , what solubility (mole fraction) is on record?
Reply: 2.3e-05

====

TEST_CONDITIONS: in dichloromethane, 288.15 K
ASSAY_ENDPOINT: solubility (mole fraction)
Just the number, please, no unit attached.

Ask: For the compound CCCCN(CCCC)c1ccc(C(=O)c2ccccc2C(=O)O)c(O)c1 , what solubility (mole fraction) is on record?
Reply: 0.0141

====

TEST_CONDITIONS: in n-propyl acetate, 293.15 K
ASSAY_ENDPOINT: solubility (mole fraction)
Just the number, please, no unit attached.

Ask: For the compound CCCCN(CCCC)c1ccc(C(=O)c2ccccc2C(=O)O)c(O)c1 , what solubility (mole fraction) is on record?
Reply: 0.00547

====

TEST_CONDITIONS: in isopropanol, 298.15 K
ASSAY_ENDPOINT: solubility (mole fraction)
Just the number, please, no unit attached.

Ask: For the molecule CCCCN(CCCC)c1ccc(C(=O)c2ccccc2C(=O)O)c(O)c1 , what solubility (mole fraction) is on record?
Reply: 0.0039

====

TEST_CONDITIONS: in isopropanol, 293.15 K
ASSAY_ENDPOINT: solubility (mole fraction)

Ask: For the compound CCCCN(CCCC)c1ccc(C(=O)c2ccccc2C(=O)O)c(O)c1 , what solubility (mole fraction) is on record?
Reply: 0.00302

====

TEST_CONDITIONS: in ethyl acetate, 288.15 K
ASSAY_ENDPOINT: solubility (mole fraction)

Ask: For the compound CCCCN(CCCC)c1ccc(C(=O)c2ccccc2C(=O)O)c(O)c1 , what solubility (mole fraction) is on record?
Reply: 0.00516

====

TEST_CONDITIONS: in acetonitrile, 318.15 K
ASSAY_ENDPOINT: solubility (mole fraction)
Just the number, please, no unit attached.

Ask: For the compound CCCCN(CCCC)c1ccc(C(=O)c2ccccc2C(=O)O)c(O)c1 , what solubility (mole fraction) is on record?
Reply: 0.00363

====

TEST_CONDITIONS: in ethanol, 313.15 K
ASSAY_ENDPOINT: solubility (mole fraction)

Ask: For the compound CCCCN(CCCC)c1ccc(C(=O)c2ccccc2C(=O)O)c(O)c1 , what solubility (mole fraction) is on record?
Reply: 0.0082

====

TEST_CONDITIONS: in dichloromethane, 283.15 K
ASSAY_ENDPOINT: solubility (mole fraction)
Just the number, please, no unit attached.

Ask: For the compound CCCCN(CCCC)c1ccc(C(=O)c2ccccc2C(=O)O)c(O)c1 , what solubility (mole fraction) is on record?
Reply: 0.0128

====

TEST_CONDITIONS: in ethanol, 293.15 K
ASSAY_ENDPOINT: solubility (mole fraction)
Just the number, please, no unit attached.

Ask: For the compound CCCCN(CCCC)c1ccc(C(=O)c2ccccc2C(=O)O)c(O)c1 , what solubility (mole fraction) is on record?
Reply: 0.00334

====

TEST_CONDITIONS: in n-propyl acetate, 323.15 K
ASSAY_ENDPOINT: solubility (mole fraction)
Just the number, please, no unit attached.

Ask: For the molecule CCCCN(CCCC)c1ccc(C(=O)c2ccccc2C(=O)O)c(O)c1 , what solubility (mole fraction) is on record?
Reply: 0.0129

====

TEST_CONDITIONS: in isopropyl acetate, 313.15 K
ASSAY_ENDPOINT: solubility (mole fraction)

Ask: For the compound CCCCN(CCCC)c1ccc(C(=O)c2ccccc2C(=O)O)c(O)c1 , what solubility (mole fraction) is on record?
Reply: 0.00901
